Please go through the items and note down their RP-LC retention time.
experiment: gradient 5% acetonitrile 3 min, to 50% in 2 min, to 85% in 15 min, held 3 min, 100 µL/min; settings: column: Zorbax Extend-C18 2.1 x 50 mm; eluents: water / acetonitrile, 0.1% formic acid
Your answer is read as s, so omit the unit and give the number.

Query: Using known records, supply RP-LC retention time for `Cc1nn(-c2ccccc2)c(C)c1S(=O)(=O)N1CCC(C(=O)NC(C)(C)C)CC1`
Result: 894

Query: Using known records, supply RP-LC retention time for `O=C(NC1CCCC1)C1CCN(c2ncccc2-c2nc(-c3ccc(Cl)cc3)no2)CC1`
Result: 1130

Query: Using known records, supply RP-LC retention time for NC(=O)c1cc[nH]c1C1CCCN(Cc2ccc(Br)o2)C1 (centres undefined)
Result: 594

Query: Using known records, supply RP-LC retention time for `COc1cccc(-c2cc(N3CCN(C(=O)NC(C)C)CC3)ncn2)c1`
Result: 612

Query: Using known records, supply RP-LC retention time for `CC(C)CCNC(=O)c1ccc2c(=O)n(-c3ccccc3)c(N3CCCC3)nc2c1`
Result: 858

Query: Using known records, supply RP-LC retention time for `O=C(Nc1cccc(Cl)c1)c1c(O)c2cccnc2n(-c2ccccc2)c1=O`
Result: 1340

Query: Using known records, supply RP-LC retention time for `O=C(COc1ccc(F)cc1)N1CCN(CC(F)(F)F)CC1`
Result: 771

Query: Using known records, supply RP-LC retention time for `CCn1nccc1C(=O)N1C[C@@H]2C[C@H](NS(=O)(=O)c3ccccc3)[C@H]1C2`
Result: 677

Query: Using known records, supply RP-LC retention time for `O=C(Nc1cc(-c2ccccn2)no1)c1ccc(F)cc1`
Result: 795

Query: Using known records, supply RP-LC retention time for `CC(C)(C)C(=O)Nc1ccc2nc(N3CCN(c4ccccc4Cl)CC3)cc(C(=O)O)c2c1`
Result: 750

Query: Using known records, supply RP-LC retention time for `COc1ccc2cccc(NC(=O)c3ccc(F)c(F)c3)c2n1`
Result: 1200

Query: Using known records, supply RP-LC retention time for `CCc1nc(-c2ccc3c(c2)CCN3C(=O)Cc2ccc(OC)c(OC)c2)no1`
Result: 923

Query: Using known records, supply RP-LC retention time for O=C(NC1CC1)C1CCCN(c2ccc(Sc3ccc(Br)cc3)nn2)C1 (centres undefined)
Result: 785

Query: Using known records, supply RP-LC retention time for Cc1ccc(CNC(=O)C2CCCN(S(=O)(=O)c3c[nH]c(C(=O)N4CCCC4)c3)C2)o1 (centres undefined)
Result: 729

Query: Using known records, supply RP-LC retention time for `Cc1cc(C)cc(-c2nc(-c3ccc4c(c3)nnn4CCC(=O)N3CCCC3)no2)c1`
Result: 1090

Query: Using known records, supply RP-LC retention time for O=C1Nc2cc(C(=O)N3CCN(C(=O)c4ccco4)CC3)ccc2N2CCCCC12 (centres undefined)
Result: 677

Query: Using known records, supply RP-LC retention time for `COCCNC(=O)c1cc2c(s1)CCN(C(C)=O)C2`
Result: 588

Query: Using known records, supply RP-LC retention time for `Cc1cc2c(=O)n(CC(=O)NCc3ccccc3F)ccc2s1`
Result: 732

Query: Using known records, supply RP-LC retention time for `CCCn1cc(CCNC(=O)Nc2ccc(C)cc2C)c2cccnc21`
Result: 781

Query: Using known records, supply RP-LC retention time for `COc1ccc(OC)c(NC(=O)N(C)CCc2noc(COc3ccc(F)cc3)n2)c1`
Result: 919

Query: Using known records, supply RP-LC retention time for `Cc1noc([C@@H]2CC(F)(F)CN2S(=O)(=O)c2ccccc2C)n1`
Result: 909

Query: Using known records, supply RP-LC retention time for `CN(CCc1noc(COc2ccc(F)cc2)n1)C(=O)c1ccc(F)cc1`
Result: 878

Query: Using known records, supply RP-LC retention time for `O=C(c1ccc2c(c1)OCO2)N1CCC2(CC1)N(c1ccccc1)C(=O)CS2(=O)=O`
Result: 685

Query: Using known records, supply RP-LC retention time for `CCc1ccc(S(=O)(=O)c2cnc3ccc(OC)cc3c2N2CCN(C)CC2)cc1`
Result: 653

Query: Using known records, supply RP-LC retention time for `CCn1cc(C(=O)NCc2ccccc2C)c2cccnc21`
Result: 809

Query: Using known records, supply RP-LC retention time for `Cc1nc2cc(-c3noc(Cc4cccc5ccccc45)n3)ccc2o1`
Result: 1130

Query: Using known records, supply RP-LC retention time for `CCc1ccc2[nH]c3c(c(=O)c2c1)CN(CC(=O)NCc1ccc(SC)cc1)CC3`
Result: 889

Query: Using known records, supply RP-LC retention time for `C=CCn1c(NCc2ccccc2Cl)nc2ccccc21`
Result: 699

Query: Using known records, supply RP-LC retention time for `c1ccc(-c2nc3nccc(-c4ccccc4)n3n2)cc1`
Result: 907

Query: Using known records, supply RP-LC retention time for `Cc1nc(NC(=O)c2ccccc2)nc2cc3c(cc12)OCO3`
Result: 688

Query: Using known records, supply RP-LC retention time for `CN(C)C(=O)c1cnn(-c2cccc(F)c2)c1-n1cccc1`
Result: 806

Query: Using known records, supply RP-LC retention time for `COc1ccc(Cl)cc1NC(=O)Cn1nc2c(N3CCCCCC3)nccn2c1=O`
Result: 804

Query: Using known records, supply RP-LC retention time for `O=C1NCCCCCCN(C(=O)c2cnccn2)[C@H]2CCC[C@@H]12`
Result: 632

Query: Using known records, supply RP-LC retention time for O=C(NC1CCN(Cc2ccccc2)CC1)C1CCCN(c2ncc(-c3ccc(F)cc3)cn2)C1 (centres undefined)
Result: 744

Query: Using known records, supply RP-LC retention time for `O=C1CCc2cc(S(=O)(=O)Nc3ccc(F)c(Cl)c3)cc3c2N1CCC3`
Result: 812

Query: Using known records, supply RP-LC retention time for `CCN1CCN(CCNC(=O)C2CCN(c3nccnc3Sc3ccc(C)cc3)CC2)CC1`
Result: 639

Query: Using known records, supply RP-LC retention time for `CCOc1ccc(NC(=O)c2oc3cc(C)ccc3c2C)c2cccnc12`
Result: 753

Query: Using known records, supply RP-LC retention time for `CCC(C)(C)NS(=O)(=O)c1cc(-c2nc(C)cs2)n(C)c1C`
Result: 1010

Query: Using known records, supply RP-LC retention time for CCC1=C(c2ccc(C)cc2)S(=O)(=O)N=C1N1CCC(C(=O)NC(C)Cc2ccco2)CC1 (centres undefined)
Result: 894

* * *

experiment: gradient 5% acetonitrile 3 min, to 50% in 2 min, to 85% in 15 min, held 3 min, 100 µL/min; settings: column: Zorbax Extend-C18 2.1 x 50 mm; eluents: water / acetonitrile, 0.1% formic acid
Please go through the items and note down their RP-LC retention time.
Your answer is read as s, so omit the unit and give the number.

Query: Using known records, supply RP-LC retention time for `CCN1c2ccc(Cl)cc2C(=O)NC12CCN(C(=O)NCc1ccccc1)CC2`
Result: 837

Query: Using known records, supply RP-LC retention time for `CCOc1ccccc1N1CCN(C(=O)CN2CCN(Cc3ccc(F)cc3)C2=O)CC1`
Result: 833

Query: Using known records, supply RP-LC retention time for `COc1ccc(-c2ncc3c(n2)CCN(S(=O)(=O)c2cccs2)C3)cc1`
Result: 997

Query: Using known records, supply RP-LC retention time for `Cc1ccc(S(=O)(=O)NC2CCN(C(=O)Cc3c[nH]c4ccccc34)CC2)cc1`
Result: 775

Query: Using known records, supply RP-LC retention time for `COc1cc(OC)c(NC(=O)NC2CCN(c3nc4ccccc4n(C)c3=O)CC2)cc1Cl`
Result: 945

Query: Using known records, supply RP-LC retention time for `COc1cc(NC(=O)Cn2cnc3c(sc4nc(-c5ccccc5)ccc43)c2=O)cc(OC)c1`
Result: 996

Query: Using known records, supply RP-LC retention time for `Cc1ccc(F)c(NS(=O)(=O)c2cc3n(c2)CCCN(C)C3=O)c1`
Result: 687

Query: Using known records, supply RP-LC retention time for `O=C(NCc1ccco1)C1CCN(Cc2cc3ccccc3n2Cc2cccc(Cl)c2)CC1`
Result: 853

Query: Using known records, supply RP-LC retention time for CC1CCC(NC(=O)C2CCCN(C(=O)c3cc(-c4cccnc4)n[nH]3)C2)CC1 (centres undefined)
Result: 636

Query: Using known records, supply RP-LC retention time for Cc1cc(C2CCCN2C(=O)Nc2ccc(C)c(F)c2)no1 (centres undefined)
Result: 818

Query: Using known records, supply RP-LC retention time for CCC(C)NC(=O)CN1C(=O)C2CCCCN2c2ccc(S(=O)(=O)N3CCCC3)cc21 (centres undefined)
Result: 850

Query: Using known records, supply RP-LC retention time for `CCCn1cc(S(=O)(=O)Nc2ccc(F)cc2Cl)c2cccnc21`
Result: 989

Query: Using known records, supply RP-LC retention time for `CC(C)Oc1ccc(C(=O)O)cc1`
Result: 823

Query: Using known records, supply RP-LC retention time for `CC(C)(C)OC(=O)Nc1ccc(-c2cc(C(=O)NCCCCCCC(=O)NO)no2)cc1`
Result: 739

Query: Using known records, supply RP-LC retention time for Cc1ccc2[nH]cc(CCN3CC(C(=O)N4CCOCC4)CC3=O)c2c1 (centres undefined)
Result: 679

Query: Using known records, supply RP-LC retention time for `Cc1nc2ncnn2c(N2CCCC2)c1C`
Result: 648

Query: Using known records, supply RP-LC retention time for CCn1nc(C)c2c(-c3ccccc3)cc(OC(C)C(=O)NCc3ccco3)nc21 (centres undefined)
Result: 782

Query: Using known records, supply RP-LC retention time for Cc1[nH]c(C(=O)N2CCCC(C(=O)NCCCc3ccccc3)C2)c(C)c1C(=O)OC(C)C (centres undefined)
Result: 892

Query: Using known records, supply RP-LC retention time for CCC(C)NC(=O)NCCc1nc2cccnc2n1Cc1ccccc1 (centres undefined)
Result: 685

Query: Using known records, supply RP-LC retention time for `CC(=O)N1CCC(c2nc(-c3ccc(CNC(=O)C4CC4)s3)no2)CC1`
Result: 661

Query: Using known records, supply RP-LC retention time for `Cn1ccc2c(cc(C(=O)N3CCN(c4ccc(F)cc4)CC3)n2C)c1=O`
Result: 689

Query: Using known records, supply RP-LC retention time for `CCc1nnc([C@@H]2CC(F)(F)CN2C(=O)c2ccc3nc[nH]c3c2)o1`
Result: 540

Query: Using known records, supply RP-LC retention time for `O=C(CCc1csc2nc(C3CC3)cn12)Nc1nc2ccccc2s1`
Result: 594

Query: Using known records, supply RP-LC retention time for `COc1ccccc1OCCNC(=O)COc1ccc(NC(=O)C2CC2)cn1`
Result: 708

Query: Using known records, supply RP-LC retention time for `O=C(Cn1nnc2ccccc2c1=O)NCCc1c[nH]c2ccc(Cl)cc12`
Result: 819

Query: Using known records, supply RP-LC retention time for CCn1ccc2cc(S(=O)(=O)N3CCCC(C(=O)NCCCOC)C3)ccc21 (centres undefined)
Result: 804

Query: Using known records, supply RP-LC retention time for `O=C(O)c1ccc2c(c1)N(C(=O)c1ccc(F)cc1)CC2`
Result: 748

Query: Using known records, supply RP-LC retention time for `CC(=O)Nc1cc(C(=O)NCc2ccccc2Br)c2ccc(C)nc2c1`
Result: 623

Query: Using known records, supply RP-LC retention time for `O=C(Nc1cccc(Br)c1)C1CCN(c2nccnc2Sc2ccccc2)CC1`
Result: 1190

Query: Using known records, supply RP-LC retention time for `CCSc1nnc(-c2nn(C)c3c2CN(C(=O)c2ccccc2C)CC3)n1C`
Result: 734

Query: Using known records, supply RP-LC retention time for `CCNC(=O)c1ccc(-n2nc(C)cc2-c2ccccc2)cc1`
Result: 749

Query: Using known records, supply RP-LC retention time for `CC(=O)Nc1nnc(SCC(=O)Nc2ccc(OC(F)(F)F)cc2)s1`
Result: 733

Query: Using known records, supply RP-LC retention time for `O=C(Nc1nnc(Cc2cccs2)o1)c1ccc(S(=O)(=O)N2CCOCC2)cc1`
Result: 691

Query: Using known records, supply RP-LC retention time for CCC(C)n1nnc2cc(S(=O)(=O)N(C)CC(=O)NCCc3c[nH]c4ccccc34)ccc21 (centres undefined)
Result: 885

Query: Using known records, supply RP-LC retention time for CC1(C(=O)NCc2ccccc2)CCCN(C(=O)NCCc2ccccc2)C1 (centres undefined)
Result: 840

Query: Using known records, supply RP-LC retention time for O=[N+]([O-])c1cccc(C2SCCN2S(=O)(=O)c2ccc(Br)cc2)c1 (centres undefined)
Result: 1020

Query: Using known records, supply RP-LC retention time for COc1cccc(-c2nc(NCC3CCCO3)ncc2C(=O)O)c1 (centres undefined)
Result: 712

Query: Using known records, supply RP-LC retention time for `Cc1noc(-c2cc(=O)n(CC(=O)Nc3cc(Cl)ccc3C)c3ccccc23)n1`
Result: 942

Query: Using known records, supply RP-LC retention time for CCc1cccc(NC(=O)C2CCCN(C(=O)C3Sc4ccccc4NC3=O)C2)c1 (centres undefined)
Result: 818
